# study-system: CDK7/CycH1/MNAT1 (Homo sapiens, UniProt P50613)
# Sequence (P50613 whole entry): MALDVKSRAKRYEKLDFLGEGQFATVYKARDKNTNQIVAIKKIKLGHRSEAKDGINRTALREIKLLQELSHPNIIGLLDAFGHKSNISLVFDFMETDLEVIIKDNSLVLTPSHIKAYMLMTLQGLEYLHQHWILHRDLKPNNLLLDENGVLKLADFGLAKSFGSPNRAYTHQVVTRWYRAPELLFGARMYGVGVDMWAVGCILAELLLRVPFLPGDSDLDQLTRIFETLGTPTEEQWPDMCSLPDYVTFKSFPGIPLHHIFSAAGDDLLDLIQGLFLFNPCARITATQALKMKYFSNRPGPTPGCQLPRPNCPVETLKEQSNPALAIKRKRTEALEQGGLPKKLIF
# Sequence (P51946 whole entry partner): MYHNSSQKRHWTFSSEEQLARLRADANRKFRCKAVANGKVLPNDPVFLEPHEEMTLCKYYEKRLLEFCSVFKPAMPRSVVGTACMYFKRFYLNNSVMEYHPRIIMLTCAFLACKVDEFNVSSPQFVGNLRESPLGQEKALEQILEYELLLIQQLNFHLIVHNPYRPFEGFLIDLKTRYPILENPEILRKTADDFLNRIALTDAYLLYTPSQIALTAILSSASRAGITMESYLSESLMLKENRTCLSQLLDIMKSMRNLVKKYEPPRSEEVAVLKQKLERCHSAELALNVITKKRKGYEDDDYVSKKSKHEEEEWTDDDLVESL
# Sequence (P51948 whole entry partner): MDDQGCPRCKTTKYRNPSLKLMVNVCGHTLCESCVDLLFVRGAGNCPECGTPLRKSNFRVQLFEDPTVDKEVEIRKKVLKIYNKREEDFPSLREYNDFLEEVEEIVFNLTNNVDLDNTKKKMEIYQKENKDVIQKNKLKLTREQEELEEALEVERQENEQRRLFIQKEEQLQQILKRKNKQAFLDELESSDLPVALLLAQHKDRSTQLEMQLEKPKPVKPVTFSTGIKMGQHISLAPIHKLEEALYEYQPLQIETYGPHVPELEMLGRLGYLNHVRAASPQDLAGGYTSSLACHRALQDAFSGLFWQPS
# measurement-description: ATP-competition caliper enzyme assay
# condition-notes: 1 mM ATP
quantity-name: IC50

Challenge: I would be grateful if you could share the reported IC50 for "CC(C)(O)Cn1cc(-c2nc(Nc3ccc(S(N)(=O)=O)cc3F)ncc2C(F)(F)F)cn1" .
Response given: > 6.67 µM
